Recorded inhibition at 100 µM values for a group of compounds are listed next.
# Protocol Notes: Cytotoxicity against human SJ-G2 cells at 100 uM after 72 hrs by MTT assay
# Type: functional
# Assay Context: SJ-G2, 72 h
Assay Endpoint: inhibition at 100 µM (%)

>>> test_value("O=C(O)[C@H](Cc1c[nH]cn1)N1C(=O)[C@H]2COC[C@H]2C1=O")
15
>>> test_value("CC(CO)N1C(=O)[C@H]2CN(Cc3ccccc3)C[C@H]2C1=O (stereo not given in full)")
18

----------
# Protocol Notes: Solubility of the compound
# Type: physicochemical
Assay Endpoint: solubility

>>> test_value("O=C1OC(=O)[C@@H]2CSC[C@H]12")
"Insoluble"
>>> test_value("CCCN1C(=O)[C@H]2CNC[C@H]2C1=O")
"Insoluble"
>>> test_value("O=C1[C@H]2CNC[C@H]2C(=O)N1N1CCOCC1")
"Insoluble"
>>> test_value("CN(C)CCNC(=O)[C@@H]1CNC[C@@H]1C(=O)O")
"Insoluble"
